Numbers sourced from PubChem BioAssay (NCI).

Assign growth to each entry below.
# Tested on: SR leukemia
# protocol.description: NCI-60 one-dose screen, 48 h (100 = growth as untreated, 0 = no growth, -100 = all killed)
# experimental.parameters: 10 µM
The panel holds about 83,000 compounds, 20% with a hit somewhere; the sample as a whole holds those more often.
One number for each entry, in %.

Here are 2 compounds together with their reported answers.
compound	target	growth / %
CCOC(=O)C1=C(N)N(c2ccc(C)cc2)C2=C(C(=O)CC(C)(C)C2)C1c1ccccc1OC (centres undefined)	SR leukemia	92.1
C/C(=C\CSc1ccccc1C(=O)O)CCCC(C)CCCC(C)CCCC(C)C (centres undefined)	SR leukemia	18.7

Provide growth for all items below, preserving their order.
1. Cc1noc2c(Cc3ccc([N+](=O)[O-])cc3)nn(CC(=O)N/N=C/c3ccc(Br)cc3)c(=O)c12
2. O=C(Cc1ccc2c(c1)CN(C1CCC(=O)NC1=O)C2=O)NCCc1ccccc1 (centres undefined)
3. N#Cc1c(NC(=O)c2ccc(C(F)(F)F)cc2)sc2c1CCC(=O)C2
4. Cc1ccc(-c2nc(Nc3ccccc3C(=O)O)c3ccccc3n2)cc1
5. C/C(=N\N=C\c1ccc(Cl)c([N+](=O)[O-])c1)c1ccc2c(c1)Nc1ccccc1S2
6. CC(=O)c1cc(C(=O)N2c3ccccc3Sc3ccccc32)n2ccc(C)cc12
7. Clc1ccc2c(N/N=C/c3c[nH]c4ccc(Br)cc34)ccnc2c1
8. O=C1CCC(N2Cc3cc(NC(=O)COc4ccccc4)ccc3C2=O)C(=O)N1 (centres undefined)

1. 97.6
2. 53.5
3. 11.3
4. 18.6
5. 44.1
6. 6.72
7. -45.6
8. 73.1

====

Assign growth to each entry below.
# System: 786-0 renal
# protocol.description: NCI-60 one-dose screen, 48 h (100 = growth as untreated, 0 = no growth, -100 = all killed)
# experimental.parameters: 10 µM
This is part of a sample that, as a whole, favours compounds with a hit. Of some 83,000 tested, about 20% had one in any assay.
Answers are plain numbers, in %.

Here are 5 molecules together with their reported answers.
molecule	target	growth (%)
CCOC(=O)C1=C(N)N(c2ccccc2)C2=C(C(=O)CC(C)(C)C2)C1c1ccc(Cl)cc1 (stereo not given)	786-0 renal	67.3
O=C(N/N=C/c1ccc(-c2cccc([N+](=O)[O-])c2)o1)c1[nH]c2ccc(Br)cc2c1-c1ccccc1	786-0 renal	5.31
COc1cc(/C=C/C(=O)c2ccc(C(F)(F)F)cc2)ccc1Oc1nc(Nc2ccc(F)cc2)nc(N(C)C)n1	786-0 renal	71.8
Nc1cc(-c2cccc(C(=O)NCc3ccc4c(c3)OCO4)c2)ccn1	786-0 renal	96.7
COc1cccc2nc(Nc3ccc(F)c(NC(=O)c4ccc(CN5CCN(C)CC5)c(C(F)(F)F)c4)c3)ccc12	786-0 renal	-66.3

Provide growth for all items below, preserving their order.
1. O=c1c2ccccc2nc(COc2ccccc2)n1/N=C/c1ccc(N2CCOCC2)cc1
2. Cc1ccn2c(C(=O)c3ccc(Br)cc3)cc(-c3cc(-c4ccc(N(C)C)cc4)c(C#N)c(N)n3)c2c1

[45.5, 40.9]

====

# Test system: COLO 205 colon
# protocol.description: NCI-60 one-dose screen, 48 h (100 = growth as untreated, 0 = no growth, -100 = all killed)
# experimental.parameters: 10 µM
About 83,000 compounds went through this panel and 20% of them were active in at least one assay; those are over-represented in the sample as a whole. Calls of active or inactive are those of the source. How the source made its calls: active means growth percent below 10; inactive means the rest.
readout.kind: growth

compound	measured.result
CCOC(=O)C1=C(N)N(c2ccccc2)C2=C(C(=O)CC(C)(C)C2)C1c1ccccc1OC (stereo not given)	128% (inactive)

Provide growth for all items below, preserving their order.
1. COc1cc(/C=C/C(=O)c2ccc(NC(=O)CN3C(=O)NC(C)(c4ccccc4)C3=O)cc2)cc(OC)c1OC (stereo not given)
2. Cc1ccc(/C=C(\C#N)n2nnc3c(F)cccc32)cc1
3. C#CCNC(=O)[C@]12CCC(C)(C)C[C@H]1C1=CC[C@@H]3[C@@](C)(CCC#N)[C@H](C(=C)C)CC[C@@]3(C)[C@]1(C)CC2
4. Cc1cccc2cc(-c3cc(-c4ccccc4)nc(=O)[nH]3)c(Cl)nc12

11.9% (inactive)
-70.6% (active)
68% (inactive)
119% (inactive)

====

# System: SNB-75 CNS
# protocol.description: NCI-60 one-dose screen, 48 h
# experimental.parameters: 10 µM
About 83,000 compounds went through this panel and 20% of them were active in at least one assay; those are over-represented in the sample as a whole. Activity calls are given as the source filed them. Rule for the calls: active = growth percent below 10; inactive = the rest.
Choose the fitting class; nothing outside active, inactive is accepted.

Below, 3 compounds whose answers are already recorded.
compound	class.name
Cc1noc2c(Cc3ccccc3)nn(CC(=O)N/N=C/c3ccc(Cl)cc3)c(=O)c12	active
COc1cc2c3c(n(CCCNC(C)C)c(=O)c2cc1OC)-c1nc2c(cc1C3=O)OCO2	inactive
C/C(=C\CSc1ccccc1C(=O)O)CCCC(C)CCCC(C)CCCC(C)C (stereo unspecified)	inactive

Outcome logged for Cc1nc(Nc2nc(C)c3ccc(OCCN4CCOCC4)cc3n2)[nH]c(=O)c1C in this assay:
inactive

Outcome logged for CO[C@@H]1CSS[C@H]1Cn1nc(-c2ccc(Oc3ccccc3)cc2)c2c(N)ncnc21 in this assay:
inactive

Outcome logged for O=C(Nc1ccc(I)cc1F)c1cc(-c2ccc(F)cc2F)ccc1O in this assay:
active

Outcome logged for O=C(CNc1nc(-c2ccccc2)cs1)Nc1ccc(Cl)cc1[N+](=O)[O-] in this assay:
active

Outcome logged for CN1C/C(=C\c2ccc(O)cc2O)c2[o+]c3cc(O)ccc3cc2C1 in this assay:
inactive

Outcome logged for COC(=O)C[C@](O)(CCCC(C)(C)O)C(=O)O[C@H]1C(OC)=C[C@@]23CCC(=O)N2CCc2cc4c(cc2[C@@H]13)OCO4 in this assay:
inactive

Outcome logged for CC(=C(c1ccc(OCCN2CCCCCC2)cc1)c1ccc(OCCN2CCCCCC2)cc1)c1ccc(Cl)cc1 in this assay:
active

Outcome logged for CCOC(=O)CNC(=O)CN(Cc1ccccc1)C(=O)[C@@]1(C)CCC[C@]2(C)[C@H]3C[C@H]4C(C(C)C)=C[C@]3(CC[C@H]21)[C@@H]1C(=O)OC(=O)[C@@H]14 in this assay:
inactive

====

# Test system: RPMI-8226 leukemia
# protocol.description: NCI-60 one-dose screen, 48 h (100 = growth as untreated, 0 = no growth, -100 = all killed)
# experimental.parameters: 10 µM
This is part of a sample that, as a whole, favours compounds with a hit. Of some 83,000 tested, about 20% had one in any assay.
Assign growth to each entry below.
Give bare numbers, in %.

compound	units.symbol	growth
CCOC(=O)CNC(=O)CN(Cc1ccccc1)C(=O)[C@@]1(C)CCC[C@]2(C)[C@H]3C[C@H]4C(C(C)C)=C[C@]3(CC[C@H]21)[C@@H]1C(=O)OC(=O)[C@@H]14	%	15.2
CCOc1ccc(Nc2nc3ccccc3nc2Nc2ccc(OCC)cc2)cc1	%	18.5
COc1ccc(-c2cc(C(=O)N=Nc3c(O)[nH]c4ccc(F)cc34)c3ccccc3n2)cc1	%	72.2
O=C(c1ccc(O)cc1)C1[C@H](c2ccccc2Br)[C@@H](c2ccccc2)NC12C(=O)Nc1ccc(Cl)cc12 (stereo partly drawn)	%	4.84

Provide growth for all items below, preserving their order.
1. Cc1cc(C(F)(F)F)ccc1C(=O)Nc1sc2c(c1C#N)CCC(=O)C2
2. O=C(Nc1ccc(F)c(Cl)c1)c1cc(-c2ccc(F)cc2F)ccc1O
3. Cc1ccc(NCC(=O)Nn2c(COc3ccccc3)nc3ccccc3c2=O)cc1
4. O=C(NC(=S)N1CCN(c2ncnc3c2cnn3-c2ccccc2)CC1)c1ccc(Cl)cc1

[2.68, -28.6, 85.9, 69.1]

====

# System: SK-MEL-28 melanoma
# protocol.description: NCI-60 one-dose screen, 48 h
# experimental.parameters: 10 µM
This is part of a sample that, as a whole, favours compounds with a hit. Of some 83,000 tested, about 20% had one in any assay. Active and inactive are the calls of the source. How the source made its calls: active means growth percent below 10; inactive means the rest.
Choose the fitting class; nothing outside Yes = active, No = inactive is accepted.

compound	class.name
CSc1nc(-c2cccc(C)c2)c2cc(-c3ccccc3)n(C)c2n1	No
CN1CCN(c2ccc(C(=O)/C=C/c3ccc(C#N)cc3)cc2)CC1	No
CN1CCN(c2ccc(Nc3nc(NCCCNC(=O)c4ccc(Cl)cc4)c4sccc4n3)cc2)CC1	No
O=C(c1ccc(O)cc1)C1[C@H](c2ccccc2Br)[C@@H](c2ccccc2)NC12C(=O)Nc1ccc(Cl)cc12 (stereo not given in full)	No

We now examine a further compound.
Outcome logged for O=c1cc(-c2ccccc2)oc2cc(OCCCCNCc3ccccc3)cc(O)c12 in this assay:
Yes

====

# System: SK-MEL-5 melanoma
# protocol.description: NCI-60 one-dose screen, 48 h (100 = growth as untreated, 0 = no growth, -100 = all killed)
# experimental.parameters: 10 µM
Compounds without any hit were thinned out: in the full panel of roughly 83,000, 20% have a hit.
readout.kind: growth (%)
Numbers only, in %.

CCOC(=O)CNC(=O)CN(Cc1ccccc1)C(=O)[C@@]1(C)CCC[C@]2(C)[C@H]3CC4C(C(C)C)=C[C@]3(CC[C@H]21)[C@@H]1C(=O)CCC(=O)[C@H]41 68.6
CCCn1c(=O)c2[nH]c(-c3ccc(OCc4nc5ccc(C#N)cc5[nH]4)cc3)nc2n(CCC)c1=O 83.4

Provide growth for all items below, preserving their order.
1. O=c1[nH]c2ccccc2cc1CSc1ccc(Nc2nccc(-c3ccc(C(F)(F)F)cc3)n2)cc1
2. COc1cc(NC(=O)c2cc(-c3ccc(F)cc3F)ccc2O)cc(OC)c1OC

89.2
-15.7
